Values compiled from PubChem BioAssay (NCI).

- System: MOLT-4 leukemia
- Assay text: NCI-60 one-dose screen, 48 h
- Condition label: 10 µM unless noted
The panel holds about 83,000 compounds, 20% with a hit somewhere; the sample as a whole holds those more often. Calls of active or inactive are those of the source. Rule for the calls: active = growth percent below 10; inactive = the rest.
Mark one answer only. Choices: active, inactive

Nc1n[nH]c2cccc(C#Cc3cccc(NC(=O)c4cccc(OC(F)(F)F)c4)c3)c12; inactive

Enquiry: Please let me know the test result on file for CC1CCc2c(sc3nc(SCC(=O)N/N=C/c4cccc(O)c4O)n(-c4ccccc4)c(=O)c23)C1 (configuration not stated) .
Return: inactive

Enquiry: Call for entry Oc1ccc(CSc2nnc(-c3ccncc3)n2-c2ccccc2)c2cccnc12 :
Return: inactive
